Attribution: the supplement of paper PMC4466140

# tested_target: SpBbc1
# method: SPOT peptide array binding signal intensity (averaged, normalized) (arbitrary units (background-subtracted, floor 0; scale differs between SH3 domains)); higher = stronger binding of the SH3 domain to the peptide
result_type: SPOT peptide array binding signal intensity
Please give only the number in your answer, with no unit.

A selection of reference data follows.
SRYRRPLTLLLLKPF = 6.25
NIKVLLNPKLGKPVK = 11.2
NSMRPPLLIPAATTK = 2.75
PPIPIVPSSPAPPLP = 3.5
RKRRTHLRLPLIRSN = 2.5
NLPKRKPPKLQGPFS = 1.5

Form field SPOT peptide array binding signal intensity, entry PPIPNAPLSPAPAVP : 0.5

Form field SPOT peptide array binding signal intensity, entry LLGRKRPVMERVVDI : 5.5

Form field SPOT peptide array binding signal intensity, entry VTHRLRISIPGITGR : 32.8

Form field SPOT peptide array binding signal intensity, entry TKFRISLGLPVGAIM : 55

Form field SPOT peptide array binding signal intensity, entry LRWRHKFFLPAIAAI : 1.75

Form field SPOT peptide array binding signal intensity, entry QQNRPLPQLPNRNNR : 28

Form field SPOT peptide array binding signal intensity, entry VDFTLPPPPPPPGLD : 0.5

Form field SPOT peptide array binding signal intensity, entry HAPPLPPTAPPPPSL : 1.5
